STUDY_SYSTEM: HIF-PH2 (EGLN1) (Homo sapiens, UniProt Q9GZT9)
Construct: made in house; host or cells: insect Hi5 cells
Sequence (Q9GZT9 whole entry, species assumed): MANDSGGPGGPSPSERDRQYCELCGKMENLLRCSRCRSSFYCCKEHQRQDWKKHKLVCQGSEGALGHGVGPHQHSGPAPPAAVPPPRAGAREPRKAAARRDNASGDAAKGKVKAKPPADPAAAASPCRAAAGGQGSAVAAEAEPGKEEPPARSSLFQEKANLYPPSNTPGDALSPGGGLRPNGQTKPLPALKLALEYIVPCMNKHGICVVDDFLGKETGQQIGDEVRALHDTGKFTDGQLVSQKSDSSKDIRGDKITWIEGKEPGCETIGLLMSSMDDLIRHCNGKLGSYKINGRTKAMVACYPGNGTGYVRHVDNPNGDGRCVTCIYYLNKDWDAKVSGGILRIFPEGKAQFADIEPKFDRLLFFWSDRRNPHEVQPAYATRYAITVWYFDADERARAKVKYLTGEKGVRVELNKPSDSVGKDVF
ASSAY_PROTOCOL: HIF-PH assay (14CO2 capture, peptide-dependent turnover)
Format: biochemical
PARTICULARS: Concentration 22.22 μM
MEASURE: inhibition at 22.22 µM (%)

SMILES_STR: O=C(O)CNC(=O)c1nc(Br)c2onc(-c3ccc(Cl)cc3)c2c1O
MEASURE: inhibition at 22.22 µM
QUANTITATIVE_READOUT: 100

SMILES_STR: Cc1nc(C(=O)NCC(=O)O)c(O)c2c(-c3ccc(OC(F)(F)F)cc3)noc12
MEASURE: inhibition at 22.22 µM
QUANTITATIVE_READOUT: 97.4

SMILES_STR: O=C(O)CNC(=O)c1ncc2onc(-c3cccc(OC(F)(F)F)c3)c2c1O
MEASURE: inhibition at 22.22 µM
QUANTITATIVE_READOUT: 99.1

SMILES_STR: O=C(O)CNC(=O)c1ncc2onc(-c3ccc(C(F)(F)F)cc3)c2c1O
MEASURE: inhibition at 22.22 µM
QUANTITATIVE_READOUT: 97.8

SMILES_STR: N#Cc1ccc(-c2noc3cnc(C(=O)NCC(=O)O)c(O)c23)cc1
MEASURE: inhibition at 22.22 µM
QUANTITATIVE_READOUT: 97.4

SMILES_STR: C#Cc1nc(C(=O)NCC(=O)O)c(O)c2c(-c3ccc(Cl)cc3)noc12
MEASURE: inhibition at 22.22 µM
QUANTITATIVE_READOUT: 96.7

SMILES_STR: O=C(O)CNC(=O)c1ncc2onc(-c3cccc(Cl)c3)c2c1O
MEASURE: inhibition at 22.22 µM
QUANTITATIVE_READOUT: 98.6

SMILES_STR: O=C(O)CNC(=O)c1ncc2onc(-c3ccccc3Cl)c2c1O
MEASURE: inhibition at 22.22 µM
QUANTITATIVE_READOUT: 95.7

SMILES_STR: N#Cc1nc(C(=O)NCC(=O)O)c(O)c2c(-c3ccc(F)cc3)noc12
MEASURE: inhibition at 22.22 µM
QUANTITATIVE_READOUT: 98.2

SMILES_STR: O=C(O)CNC(=O)c1nc(-c2cccnc2)c2onc(-c3ccccc3)c2c1O
MEASURE: inhibition at 22.22 µM
QUANTITATIVE_READOUT: 99.6

SMILES_STR: O=C(O)CNC(=O)c1ncc2onc(-c3ccc(F)cc3)c2c1O
MEASURE: inhibition at 22.22 µM
QUANTITATIVE_READOUT: 97.9

SMILES_STR: O=C(O)CNC(=O)c1nc(-c2ccccc2)c2onc(-c3ccccc3)c2c1O
MEASURE: inhibition at 22.22 µM
QUANTITATIVE_READOUT: 98.4

SMILES_STR: COc1ccc(-c2noc3c(O)c(C(=O)NCC(=O)O)nc(-c4ccccc4)c23)cc1
MEASURE: inhibition at 22.22 µM
QUANTITATIVE_READOUT: 98.9

SMILES_STR: O=C(O)CNC(=O)c1ncc2onc(-c3ccc(OC(F)(F)F)cc3)c2c1O
MEASURE: inhibition at 22.22 µM
QUANTITATIVE_READOUT: 98.7

SMILES_STR: O=C(O)CNC(=O)c1ncc2onc(-c3ccc(-c4ccccc4)cc3)c2c1O
MEASURE: inhibition at 22.22 µM
QUANTITATIVE_READOUT: 99.4

SMILES_STR: N#Cc1nc(C(=O)NCC(=O)O)c(O)c2c(-c3ccc(Cl)cc3)noc12
MEASURE: inhibition at 22.22 µM
QUANTITATIVE_READOUT: 98.7

SMILES_STR: O=C(O)CNC(=O)c1ncc2onc(-c3ccc(Oc4ccccc4)cc3)c2c1O
MEASURE: inhibition at 22.22 µM
QUANTITATIVE_READOUT: 99.8

SMILES_STR: Cc1noc2cnc(C(=O)NCC(=O)O)c(O)c12
MEASURE: inhibition at 22.22 µM
QUANTITATIVE_READOUT: 99.3

SMILES_STR: CC(C)(C)c1ccc(-c2noc3cnc(C(=O)NCC(=O)O)c(O)c23)cc1
MEASURE: inhibition at 22.22 µM
QUANTITATIVE_READOUT: 98.8
